- Target entity: T1, ASAP1-SH3 (residue 1087–1147) (mouse, UniProt Q9QWY8 1087-1147)
- T1 chain: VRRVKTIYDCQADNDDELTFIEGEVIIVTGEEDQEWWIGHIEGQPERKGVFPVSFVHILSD
- Test description: ITC
Outcome measure: Kd (nM)
Give bare numbers, in nM.

MICAL1-loop3 (domain or fragment) AEGSDRGPESPELPTPSENSMPPGLSTPTASQEGAGPVPDPSQPTRRQIRLSSPERQRLSSLNLTPDPEMEPPPKPPRSCSALARHALESSFVGWGLPVQSPQALVAMEKEEKESPFSSEEEEEDVPLDSDVEQALQTFAKTSGTMNNYPTWRRTLLRRA : 1100

// next item, Kd requested
Prompt: Could you tell me which Kd is on file for EPPPKPPRSCSALAR [MICAL1-PRM] ?
Completion: 800
